src = patent US6391305B1

assayed.system: enzymatically active free PSA (Homo sapiens, UniProt P07288)
Construct: required for 50% cleavage of the noted oligopeptides with enzymatically active free PSA
Sequence (P07288 25-261): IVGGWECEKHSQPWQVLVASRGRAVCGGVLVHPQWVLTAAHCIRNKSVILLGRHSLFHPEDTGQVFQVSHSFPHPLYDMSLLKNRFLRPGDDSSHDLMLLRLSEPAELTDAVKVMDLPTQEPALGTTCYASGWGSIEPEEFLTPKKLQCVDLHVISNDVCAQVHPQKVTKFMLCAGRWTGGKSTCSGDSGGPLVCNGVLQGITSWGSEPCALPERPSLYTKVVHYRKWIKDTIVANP
assay.text: Recognition (cleavage) of oligopeptide-doxorubicin conjugates by free PSA, HPLC
Type: biochemical
condition.notes: DOX conjugate; PSA digestion buffer pH7.4, 140 mM NaCl; molar ratio to PSA 100 to 1
Non-standard residues stand in square brackets, D forms with d. Residues, ends and D or L forms follow the SMILES beside them. *: point of attachment. Doxorubicin(3'-N) = COc1cccc2c1C(=O)c1c(O)c3c(c(O)c1C2=O)C[C@@](O)(C(=O)CO)C[C@@H]3O[C@H]1C[C@H](N*)[C@H](O)[C@H](C)O1; Decanoyl(3,6,9-trioxa) = COCCOCCOCC(=O)*; Glyceroyl(2R) = O=C([C@H](O)CO)*; hArg = N=C(N)NCCCC[C@H](N)C(=O)O; X1 = O=C([C@H](O)[C@@H](O)CO)*; Chg = N[C@H](C(=O)O)C1CCCCC1; hSer = N[C@@H](CCO)C(=O)O; X3 = O=C(C(O)CO)*
measured.parameter: Time to 50% Substrate Cleavage by York PSA
Please don't drop the unit; write it after the number.

COCCOCCOCC(=O)N[C@@H](CO)C(=O)N[C@@H](CCCCNC(=N)N)C(=O)N[C@H](C(=O)N[C@@H](CCC(N)=O)C(=O)N[C@@H](CO)C(=O)N[C@@H](CC(C)C)C(=O)N[C@H]1C[C@H](O[C@H]2C[C@](O)(C(=O)CO)Cc3c(O)c4c(c(O)c32)C(=O)c2c(OC)cccc2C4=O)O[C@@H](C)[C@H]1O)C1CCCCC1 [PEG(2)-SHomoRChgQ-SL-DOX (3′), PEG(2)-SerhArgChgGln-SerLeu-DOX (3′)] ({Decanoyl(3,6,9-trioxa)}-S[hArg][Chg]QSL-{Doxorubicin(3'-N)}) = 25 min
COc1cccc2c1C(=O)c1c(O)c3c(c(O)c1C2=O)C[C@@](O)(C(=O)CO)C[C@@H]3O[C@H]1C[C@H](NC(=O)[C@H](CC(C)C)NC(=O)[C@H](CO)NC(=O)[C@H](CCC(N)=O)NC(=O)[C@@H](NC(=O)[C@H](CCCCNC(=N)N)NC(=O)[C@H](CO)NC(=O)[C@H](O)[C@@H](O)CO)C2CCCCC2)[C@H](O)[C@H](C)O1 (X1-S[hArg][Chg]QSL-{Doxorubicin(3'-N)}) = 45 min
COc1cccc2c1C(=O)c1c(O)c3c(c(O)c1C2=O)C[C@@](O)(C(=O)CO)C[C@@H]3O[C@H]1C[C@H](NC(=O)[C@H](CC(C)C)NC(=O)[C@H](CO)NC(=O)[C@H](CCC(N)=O)NC(=O)[C@@H](NC(=O)[C@H](CO)NC(=O)[C@H](CO)NC(=O)[C@H](CCO)NC(=O)C(O)CO)C2CCCCC2)[C@H](O)[C@H](C)O1 (some centres unmarked) (X3-[hSer]SS[Chg]QSL-{Doxorubicin(3'-N)}) = 35 min
COc1cccc2c1C(=O)c1c(O)c3c(c(O)c1C2=O)C[C@@](O)(C(=O)CO)C[C@@H]3O[C@H]1C[C@H](NC(=O)[C@H](CC(C)C)NC(=O)[C@H](CO)NC(=O)[C@H](CCC(N)=O)NC(=O)[C@@H](NC(=O)[C@H](CO)NC(=O)[C@H](CO)NC(=O)[C@H](O)CO)C2CCCCC2)[C@H](O)[C@H](C)O1 ({Glyceroyl(2R)}-SS[Chg]QSL-{Doxorubicin(3'-N)}) = 120 min

Next up:
I'd like to know its Time to 50% Substrate Cleavage by York PSA. The molecule in question is COCCOCCOCC(=O)N[C@@H](C)C(=O)N[C@@H](CO)C(=O)N[C@H](C(=O)N[C@@H](CCC(N)=O)C(=O)N[C@@H](CO)C(=O)N[C@@H](CC(C)C)C(=O)N[C@H]1C[C@H](O[C@H]2C[C@](O)(C(=O)CO)Cc3c(O)c4c(c(O)c32)C(=O)c2c(OC)cccc2C4=O)O[C@@H](C)[C@H]1O)C1CCCCC1 [PEG(2)-ASChgQ-SL-DOX (3′), PEG(2)-AlaSerChgGln-SerLeu-DOX (3′)] ({Decanoyl(3,6,9-trioxa)}-AS[Chg]QSL-{Doxorubicin(3'-N)})
45 min
